Assay: In vitro metabolism: disappearance of parent compound in rat liver microsomes (male, female)
Format: in vitro ADME
Details: female rat liver microsomes, 5 uM compound, 30 minutes 37° C.
Description: Human, rat, dog, and monkey liver microsomes were isolated by differential centrifugation. Specimens of human liver were obtained from the International Institute for the Advancement of Medicine (Scranton, Pa.). The disappearance of the parent compound was studied in a mixture containing 5 uM compound, 0.5 mg/ml microsomal protein, and 2 mM NADPH in 50 mM K phosphate buffer, pH 7.4. […] The reaction was terminated by the addition of acetonitrile and compounds analyzed by LC-MS as described above.
ENDPOINT: Fem. Rat (FR) % rem. 30′ (%)

COMPOUND | DISPLAY UNIT | MEAS VALUE
COc1nc(NCCCCN(C)C)nc(OC)c1NC(=O)c1ccc(Cc2cc3c(cc2C)C(C)(C)OC3(C)C)o1 [Example D11] | % | 56
COc1nc(N(CCCN2CCCCC2)CCCN2CCCCC2)nc(OC)c1NC(=O)c1ccc(Cc2cc3c(cc2C)C(C)(C)OC3(C)C)o1 [Example D21] | % | 89
COc1nc(NCCCN2CCCCC2)nc(OC)c1NC(=O)c1ccc(Cc2cc3c(cc2C)C(C)(C)OC3(C)C)o1 [Example D22] | % | 94
CNc1nc(OC)c(NC(=O)c2ccc(Cc3cc4c(cc3C)C(C)(C)CCC4(C)C)o2)c(OC)n1 [Example B1] | % | 94

(A) COc1nc(OCCO)nc(OC)c1NC(=O)c1ccc(Cc2cc3c(cc2C)C(C)(C)OC3(C)C)o1 [Example A3]
(B) COc1nc(NCCCNCCCN)nc(OC)c1NC(=O)c1ccc(Cc2cc3c(cc2C)C(C)(C)OC3(C)C)o1 [Example D17]
query: Field: lower recorded Fem. Rat (FR) % rem. 30′ (choose A or B ) # respond with the chosen item's label
result: B

(a) COc1nc(NCCCN(C)C)nc(OC)c1NC(=O)c1ccc(Cc2cc3c(cc2C)C(C)(C)OC3(C)C)o1 [Example D9]
(b) COc1nc(N(C)C)nc(OC)c1NC(=O)c1ccc(Cc2cc3c(cc2C)C(C)(C)CCC3(C)C)o1 [Example B2]
query: Field: lower recorded Fem. Rat (FR) % rem. 30′ (choose a or b ) # respond with the chosen item's label
result: b
(b: 35%, a: 100%)
